tested on: SNB-75 CNS; assay: NCI tumour cell line growth inhibition, 48 h
// reported TGI for each item listed

Below, each entry is followed by its recorded TGI result.
O=S(=O)(Nc1ccccc1)c1ccc(-c2c3nc(c(-c4ccc(S(=O)(=O)Nc5ccccc5)cc4)c4ccc([nH]4)c(-c4ccc(S(=O)(=O)Nc5ccccc5)cc4)c4nc(c(-c5ccc(S(=O)(=O)Nc6ccccc6)cc5)c5ccc2[nH]5)C=C4)C=C3)cc1	> 31.6 µM
CN1CCN(C(=S)N(C(=O)c2cccs2)C2CCCCC2)CC1	> 100 µM

Could you tell me which TGI is on file for O=C1CC(=O)NC(=NN2C(=O)CSC2c2ccccc2)N1 (stereo unspecified) ?
> 100 µM

What do we get for O=C1CCCCCCCCCCC(=O)N2CCOCCOCCN1Cc1cccc(n1)C2 ?
> 100 µM

What do we get for CC12CCC(C(Br)(Br)C1=O)C2(C)C (stereo unspecified) ?
11.6 µM

What do we get for O=c1c2ccc3cccc4c(=O)c5ccc6cccc1c6c5-c2c34 ?
> 50 µM

###

// reported GI50 for each item listed
system: HOP-62 NSCLC; test: NCI tumour cell line growth inhibition, 48 h

CCOC(=O)N1C/C(=C/c2ccc(F)cc2)C(=O)/C(=C/c2ccc(F)cc2)C1	2100 nM

Query for HOP-62 NSCLC: what GI50 does the record show for CCN1CCN(c2cc(C)nc(N(CCNc3ccnc4cc(Cl)ccc34)Cc3ccc4c(c3)OCO4)n2)CC1 ?
1940 nM

What do we get for N=C(N)N=Nc1ccc(NN=C(N)N)c2c1ncc1c2nc2sccn21 ?
29600 nM

What do we get for ClCc1ccc(-c2ccc(Cn3cnc4nc(Cl)nc(Cl)c43)cc2)cc1 ?
13500 nM

What do we get for CCCS(=O)(=O)Nc1ccc(F)c(C(=O)c2c[nH]c3ncc(Cl)cc23)c1F ?
10200 nM

What do we get for O=C(Nc1ccc(CN2CCOCC2)cc1)c1ccc(-c2cc(Cl)ccc2Cl)o1 ?
15500 nM

What do we get for CN(C)CCCOc1ccc(OCCCN(C)C)c2c1C(=O)c1ccccc1C2=O ?
634 nM

What do we get for O=C(Nc1cccc(-n2cc(-c3ccncc3)c(-c3ccc(Cl)c(O)c3)n2)c1)Nc1ccc(Cl)c(C(F)(F)F)c1 ?
1040 nM

What do we get for Fc1cnc(NC2CC2)nc1-c1cnc2ccc(N3CCOCC3)cn12 ?
306 nM

What do we get for COc1ccc(C(=O)c2cc(OC)c3c(c2)OCO3)cc1O ?
383 nM

What do we get for C[C@@H]1C[N+]2([O-])[C@H]3C4=CCC[C@@H]4CC[C@H]3[C@@]3(C)OC(=O)CC[C@]34CC[C@H]1[C@@H]42 (stereo partly specified) ?
> 60000 nM

###

test system: MALME-3M melanoma; assay: NCI tumour cell line growth inhibition, 48 h
Where a SMILES comes first, the peptide text is derived from it. The star is where a group is joined. Boc = CC(C)(C)OC(=O)*
// reported TGI for each item listed

Below, each entry is followed by its recorded TGI result.
CCOC(=O)Nn1c(C)nnc1CC#N	> 100 µM
COC(=O)c1cc(OC(C)=O)c2c(OC)ccc(OC)c2c1	> 100 µM
O=C1c2ccccc2-c2nnc(-c3ccc(Br)cc3)cc21	> 100 µM
C=C1C(O)C23CCC4C(C(=O)O)(C(=O)O)CC(OC5OC(CO)C(O)C(OC(=O)CCc6ccccc6)C5NC(=O)CC(C)C)CC4(C)C2CCC1(O)C3 (stereo unspecified)	> 100 µM
C/C(=N\NC1=NCCN1)c1cn(C2=NCCN2)nc1C	> 100 µM
O=C(N/N=C/c1ccccc1O)c1ccccc1O	> 100 µM
O=C1OCC=C1COC1OC(CO)C(O)C(O)C1O (stereo unspecified)	> 100 µM
COC1CC(OC2C(C)OC(OC3C(C)OC(OC4C(C)OC(O[C@H]5CC[C@@]6(C)C(=CC[C@]7(O)[C@@H]6C[C@@H](OC(=O)/C=C(\C)C(C)C)[C@@]6(C)[C@]7(O)CC[C@@]6(O)C(C)=O)C5)CC4OC)CC3OC)CC2OC)OC(C)C1O (stereo partly specified)	> 12.5 µM
CC(=O)O[C@H]1CCC2(C)C(=CCC3C2CCC2(C)/C(=N/OC(=O)c4ccc(N(CCCl)CCCl)cc4)CCC32)C1 (stereo partly specified)	> 100 µM
Cc1ncc([N+](=O)[O-])n1CCNC(=O)CCCn1ccnc1[N+](=O)[O-]	> 100 µM

Could you tell me which TGI is on file for Cc1cc(O)c(C=O)c2c1C(=O)Oc1c(CO)c(O)c3c(c1O2)C(O)OC3=O (stereo unspecified) ?
> 100 µM

What do we get for CC(C)(C)OC(=O)NC(Cc1ccc(O)cc1)C(=O)NC(CCCCN)C(=O)O (stereo not drawn) (Boc-Tyr-Lys-OH; configuration not given here) ?
76.6 µM

What do we get for O=C(O)c1cccc2cccc(-c3c4ccc(=O)cc-4oc4cc(O)ccc34)c12 ?
> 100 µM

What do we get for O=c1[nH]c(=O)n(C2CC(O)C(CO)O2)c2nc3cc4ccccc4cc3nc12 (stereo unspecified) ?
> 100 µM

What do we get for Cc1cc2ncn(C3CCCO3)c2cc1C (stereo unspecified) ?
> 100 µM
